Measured Ki (σ1R (Cavia porcellus, UniProt Q60492))

O=C(CCc1ccc(OCCCCn2ccnc2)cc1)N1CCN(Cc2ccccc2)CC1 > 10 µM

Please look at the following molecule next.
Requested read-out: Ki. Entry: O=C(Cc1ccc(OCCCCn2ccnc2)cc1)N1CCN(Cc2ccccc2)CC1
> 10 µM

====

Please go through the items and note down their inhibition at 10 µM.
Target: σ1R (Cavia porcellus, UniProt Q60492)
Construct: The thawed membrane preparation of guinea pig brain cortex was incubated with increasing concentrations of test compounds; from tissue; host or cells: brain cortex membranes of male Dunkin-Hartley guinea pigs (animals from ENVIGO RMS S.R.L.)
Sequence (Q60492 whole entry): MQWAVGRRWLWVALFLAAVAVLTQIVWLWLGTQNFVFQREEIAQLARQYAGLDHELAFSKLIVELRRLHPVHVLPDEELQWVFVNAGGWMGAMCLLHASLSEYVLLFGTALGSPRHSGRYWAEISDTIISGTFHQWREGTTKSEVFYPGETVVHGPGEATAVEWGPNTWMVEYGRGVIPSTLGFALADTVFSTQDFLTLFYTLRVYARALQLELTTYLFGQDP
Assay: σ1R radioligand binding assay, [3H](+)-pentazocine, guinea pig brain cortex membranes
Details: read-out: σ1R % of inhibition at 10 μM
One number for each entry, in %.

See these solved cases before continuing.
compound	inhibition at 10 µM / %
O=C(c1ccc(OCCCCn2ccnc2)cc1)N1CCN(Cc2ccccc2)CC1 [Compound 1]	90
O=C(CCCc1ccc(OCCCCn2ccnc2)cc1)N1CCN(Cc2ccccc2)CC1 [Compound 4]	55
O=C(CCc1ccc(OCCCCn2ccnc2)cc1)N1CCN(Cc2ccccc2)CC1 [Compound 3]	78

Turning to the following compound.
Can you look up the measured inhibition at 10 µM of O=C(Cc1ccc(OCCCCn2ccnc2)cc1)N1CCN(Cc2ccccc2)CC1 [Compound 2] for me?
73
